These entries and their values trace back to patent US20110098217A1.

Molecular target: human glucagon receptor (human, UniProt P47871 26-477)
Sequence (P47871 26-477): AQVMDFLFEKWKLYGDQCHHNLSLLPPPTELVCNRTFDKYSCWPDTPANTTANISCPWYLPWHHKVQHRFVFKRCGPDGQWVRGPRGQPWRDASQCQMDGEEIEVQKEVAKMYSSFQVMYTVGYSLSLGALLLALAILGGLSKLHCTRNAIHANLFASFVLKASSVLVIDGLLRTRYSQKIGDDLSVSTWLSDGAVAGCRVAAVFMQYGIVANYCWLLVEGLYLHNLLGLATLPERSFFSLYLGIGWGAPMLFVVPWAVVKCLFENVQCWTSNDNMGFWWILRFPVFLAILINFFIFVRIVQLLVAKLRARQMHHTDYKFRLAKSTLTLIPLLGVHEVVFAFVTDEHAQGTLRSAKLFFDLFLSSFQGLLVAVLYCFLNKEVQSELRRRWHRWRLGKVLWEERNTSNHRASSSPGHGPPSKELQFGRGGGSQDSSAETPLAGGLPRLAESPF
Assay: cell-based or functional assay
Bridge positions count the residues as written; N and C are the ends. Square brackets hold non-standard residues; d marks the D form. Side chains are listed from the residue outwards. Ends that are not written are not given here. Glu = Glu spacer between Lys side chain and the C16 fatty acid (EC16FA); PhLac = O=C(O)[C@@H](O)Cc1ccccc1
Reported Glucagon antagonism IC50 (inhibit 0.4 nM glucagon) values are given for each entry in this list.
endpoint.name: Glucagon antagonism IC50 (inhibit 0.4 nM glucagon)

binder	result
[PhLac](C16 fatty acid)TSDYSKYLDERRAKDFVQWLMDT-NH2 (lactam 11-15) [[C16FA-O-PLA6, E16K20(lactam),D28]G(6-29)]	338 nM
[PhLac]TSDYSKYLDERRAK([Glu-C16 fatty acid])DFVQWLMDT-NH2 [[PLA6, E16, K20(EC16FA), D28]G(6-29)]	576 nM
[PhLac]TSDK([Glu-C16 fatty acid])SKYLDERRAKDFVQWLMDT-NH2 (lactam 11-15) [[PLA6, K10(EC16FA), E16K20(lactam),D28]G(6-29)]	31.1 nM
[PhLac]TSDYSKYLDERRAKDFVQWLMDK([Glu-C16 fatty acid])-NH2 (lactam 11-15) [[PLA6, E16K20(lactam), D28, K29(EC16FA)]G(6-29)]	386 nM
[PhLac]TSDK([Glu-C16 fatty acid])SKYLDERRAKDFVQWLMDT-NH2 [[PLA6, K10(EC16FA), E16, K20,D28]G(6-29)]	222 nM
[PhLac]TSDYSKYLDERRAKDFVK([Glu-C16 fatty acid])WLMDT-NH2 (lactam 11-15) [[PLA6, E16K20(lactam), K24(EC16FA), D28]G(6-29)]	372 nM
